- PROCEDURE_TEXT: Solubility trials of rutin in water, ethanol, methanol and NADES, quantified by HPLC-DAD
- Assay type: physicochemical
- EXPERIMENTAL_SETUP: natural deep eutectic solvent (NADES), 22 °C, organic solvent or mixture, thermodynamic from solid, solvent mixture 21 Citrulline–Malic Acid 1:1
REPORTED_PROPERTY: solubility at 1 h (µg/mL)
Give bare numbers, in µg/mL.

Please report the recorded solubility at 1 h for C[C@@H]1O[C@@H](OC[C@H]2O[C@@H](Oc3c(-c4ccc(O)c(O)c4)oc4cc(O)cc(O)c4c3=O)[C@H](O)[C@@H](O)[C@@H]2O)[C@H](O)[C@H](O)[C@H]1O .
454
